System: Escherichia coli ∆tolC
Experiment: microbe, parasite or virus in culture
Assay type: cell-based
Details: Escherichia coli, read-out: Ec∆tolC inh. at 50 µM (%)
MEASURED PARAMETER: inhibition at 50 µM

| MOLECULE | RECORDED RESULT |
| --- | --- |
| CC(C)(C)OC(=O)NCc1cccc(NC(=O)c2cc(-c3cc(Cl)ccc3O)[nH]n2)c1 | < 10% |
| CC(C)(C)OC(=O)NCc1ccc(NC(=O)c2cc(-c3cc(Cl)ccc3O)[nH]n2)cc1C(F)(F)F [Compound 10B] | < 10% |
| CC(C)(C)OC(=O)NCc1ccc(NC(=O)c2cc(-c3cc(Cl)ccc3O)[nH]n2)cc1 | < 10% |
| O=C(Nc1cccc(CN2CCOCC2)c1)c1cc(-c2cc(Cl)ccc2O)[nH]n1 | 24% |

Provenance of the data: paper PMC11938010
